target: human NK2-receptor (Homo sapiens); assay: Binding potency of the test substances to NK2-receptors in vitro ([3H]-SR 48968 displacement); set-up: expressed in transfected cells; host or cells: CHO cells (membrane preparation); conditions: human NK2-receptor in CHO cell membranes, [3H]-SR 48968 (saredutant); average of at least three measurements; read-out: pKi, binding potency to NK2-receptors (converted)
Sequence (P21452 whole entry): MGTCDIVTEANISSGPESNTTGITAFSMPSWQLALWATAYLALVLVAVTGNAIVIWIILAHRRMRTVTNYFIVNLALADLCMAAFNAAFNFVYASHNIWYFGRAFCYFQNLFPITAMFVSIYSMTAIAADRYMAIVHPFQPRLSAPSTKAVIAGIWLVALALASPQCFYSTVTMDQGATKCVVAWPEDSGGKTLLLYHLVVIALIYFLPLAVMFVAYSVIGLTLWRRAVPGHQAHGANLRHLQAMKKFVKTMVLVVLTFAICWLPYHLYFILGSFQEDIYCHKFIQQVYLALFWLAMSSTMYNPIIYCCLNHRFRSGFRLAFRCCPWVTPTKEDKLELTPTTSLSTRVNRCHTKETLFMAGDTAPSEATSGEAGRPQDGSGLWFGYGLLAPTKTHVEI
assay.readout: Ki (µM)

Record excerpt, results attached:
CN(C)C(=O)C1(N2CCCCC2)CCN(CCC(CN(C)C(=O)c2ccc(Cl)cc2)c2ccc(Cl)c(Cl)c2)CC1 (stereo not shown) [compound 84]; 0.0126
CN(C)C(=O)C1(N2CCCCC2)CCN(CCC(CN(C)C(=O)c2ccc(-c3ccccc3)cc2)c2ccc(Cl)c(Cl)c2)CC1 (stereo not shown) [compound 27]; 0.0158

(a) CN(C)C(=O)C1(N2CCCCC2)CCN(CCC(CN(C)C(=O)c2cc[nH]c2)c2ccc(Cl)c(Cl)c2)CC1 (stereo not shown) [compound 64]
(b) COc1cccc(C(=O)N(C)CC(CCN2CCC(C(=O)N(C)C)(N3CCCCC3)CC2)c2ccc(Cl)c(Cl)c2)c1 (stereo not shown) [compound 82]
(c) CN(C[C@@H](CCN1CCC(C(=O)N2CCCC2)(N2CCCC2)CC1)c1ccc(Cl)c(Cl)c1)C(=O)c1cc(C#N)cc2ccccc12 [compound 102]
(d) CN(C)C(=O)C1(N2CCCCC2)CCN(CCC(CN(C)C(=O)Cc2cccnc2)c2ccc(Cl)c(Cl)c2)CC1 (stereo not shown) [compound 50]
(e) Cc1ccc(C(=O)N(C)CC(CCN2CCC(C(=O)N(C)C)(N3CCCCC3)CC2)c2ccc(Cl)c(Cl)c2)cc1 (stereo not shown) [compound 87]
Output the entries ranked by Ki from maximum down to minimum. Write the labels in rank order as requested.
d, a, e, c, b
(d: 0.0398 µM, a: 0.0126 µM, e: 0.00794 µM, c: 0.00501 µM, b: 0.00251 µM)
